# measuredTarget: DGKζ (Homo sapiens)
# Sequence (Q13574 whole entry): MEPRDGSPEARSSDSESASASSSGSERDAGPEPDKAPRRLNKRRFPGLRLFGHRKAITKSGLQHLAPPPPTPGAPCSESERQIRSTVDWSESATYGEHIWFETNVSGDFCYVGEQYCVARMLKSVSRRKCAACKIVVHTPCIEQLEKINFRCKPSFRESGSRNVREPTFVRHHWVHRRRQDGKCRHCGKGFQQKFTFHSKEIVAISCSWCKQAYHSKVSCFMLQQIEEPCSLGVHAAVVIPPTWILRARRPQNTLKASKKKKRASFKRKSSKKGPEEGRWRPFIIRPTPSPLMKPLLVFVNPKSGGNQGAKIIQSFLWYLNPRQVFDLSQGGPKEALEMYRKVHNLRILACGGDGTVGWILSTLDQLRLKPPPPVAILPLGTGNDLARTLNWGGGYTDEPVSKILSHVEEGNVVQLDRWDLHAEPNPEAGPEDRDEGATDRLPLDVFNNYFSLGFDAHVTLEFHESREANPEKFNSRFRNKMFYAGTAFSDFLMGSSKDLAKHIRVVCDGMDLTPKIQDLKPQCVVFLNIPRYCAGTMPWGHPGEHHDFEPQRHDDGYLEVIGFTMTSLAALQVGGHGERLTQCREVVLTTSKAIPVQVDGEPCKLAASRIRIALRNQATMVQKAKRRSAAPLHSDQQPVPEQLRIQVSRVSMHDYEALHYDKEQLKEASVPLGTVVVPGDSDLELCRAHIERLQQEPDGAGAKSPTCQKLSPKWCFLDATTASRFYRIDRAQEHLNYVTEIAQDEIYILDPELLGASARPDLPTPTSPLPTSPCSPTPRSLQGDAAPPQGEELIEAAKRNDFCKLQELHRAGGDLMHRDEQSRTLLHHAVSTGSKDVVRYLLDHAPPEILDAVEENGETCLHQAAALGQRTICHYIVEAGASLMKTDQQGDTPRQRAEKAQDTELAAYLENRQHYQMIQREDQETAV
# protocol: In vitro DGKζ inhibition assay (ADP-Glo)
# studyConditions: His-tagged human recombinant enzyme; 0.4 nM DGKζ, 30 μM ATP, 20 μM DLG; 90 minute incubation; ADP-Glo luminescence
quantityMeasured: IC50

// worked examples, IC50 included
>>> recordedvalue("COc1cc(F)ccc1Oc1ccc(/C=C(\\F)c2nccc(-c3ccnnc3)n2)c(N2CCC[C@@H](CN)C2)c1Cl")
"≤ 20 nM"
>>> recordedvalue("CCN1CCC2(CC1)CN(c1c(/C=C(\\F)c3nccc(-c4ccnnc4)n3)ccc(Oc3ccccc3)c1C(F)(F)F)CCO2")
"≤ 20 nM"
>>> recordedvalue("F/C(=C\\c1ccc(Oc2ccccc2)c(C(F)(F)F)c1N1CCCC2(CCN(CC3CC3)CC2)C1)c1nccc(-c2ccnnc2)n1")
"≤ 20 nM"
>>> recordedvalue("F/C(=C\\c1ccc(Oc2ccccc2)c(C(F)(F)F)c1N1CCCC2(CCN(CC3CC3)CC2)C1)c1cncc(N2CC(F)(F)C2)n1")
"≤ 20 nM"
>>> recordedvalue("F/C(=C\\c1ccc(Oc2cccc(F)c2F)c(C(F)(F)F)c1N1CCCC2(CCN(CC3CC3)CC2)C1)c1cncc(-c2ccns2)n1")
"≤ 20 nM"

Q: Entry NC[C@@H]1CCCN(c2c(/C=C(\F)c3nccc(-c4ccnnc4)n3)ccc(Oc3ccccc3)c2C(F)(F)F)C1 , system DGKζ (Homo sapiens): what IC50 was measured?
Result: ≤ 20 nM

Q: Entry CCN1CCC2(CC1)CN(c1c(/C=C(\F)c3nccc(-c4ccnnc4)n3)ccc(Oc3ccccc3F)c1C(F)(F)F)CCO2 , system DGKζ (Homo sapiens): what IC50 was measured?
Result: ≤ 20 nM

Q: Entry N#Cc1ncc(N2CC(F)(F)C2)nc1/C(F)=C/c1ccc(Oc2ccccc2F)c(C(F)(F)F)c1N1CCC[C@@H](CN)C1 , system DGKζ (Homo sapiens): what IC50 was measured?
Result: ≤ 20 nM
